# testDetails: method code SF-AS, from DOI: 10.3109/00498258809055142, PMID: 3354228
parameter: logP

What logP value was documented for this compound, `OCCN1CCN(CCCN2c3ccccc3C=Cc3ccccc32)CC1` ? 3

====

parameter: logP
The answer should be a number; do not append a unit.

What logP value was documented for this compound, `CCOC(=O)CCCn1c(=O)oc2ccccc2c1=O` ? 0.63

====

Here the recorded logD is given for each entry.
# testDetails: method code SF-AS, from DOI: 10.1016/0223-5234(93)90135-2
# conditionParameters: pH 12.2
The answer should be a number; do not append a unit.

| smilesInput | parameter | reading |
| --- | --- | --- |
| NCCc1nc(-c2ccccc2)cs1 | logD | 2.22 |

What logD value was documented for this compound, `NCCc1cn2ccccc2n1` ? 0.59

What logD value was documented for this compound, `CN(C)CCc1ccccn1` ? 1.12

What logD value was documented for this compound, `CNCCc1ccccn1` ? 0.68

====

# testDetails: method code SF-RC, from DOI: 10.1016/j.nucmedbio.2011.12.002, PMID: 22321533
parameter: logP

What logP value was documented for this molecule, Cc1cn(C2CC(O)C(CO)O2)c(=O)n(Cc2cn(CCF)nn2)c1=O (stereo unspecified) ? -1.22

====

Here the recorded logP is given for each entry.
# testDetails: method code SF-GLC, from DOI: 10.1016/0048-3575(76)90072-9
The answer should be a number; do not append a unit.

Some entries whose results are on file:
| smilesInput | parameter | reading |
| --- | --- | --- |
| CCOC(=O)CN(C(=O)CCl)c1ccccc1CC | logP | 2.57 |
| CCOC(=O)CN(C(=O)CCl)c1ccccc1Cl | logP | 2.3 |
| CCOC(=O)CN(C(=O)CCl)c1c(CC)cccc1CC | logP | 3.17 |

Query compound follows.
What logP value was documented for this compound, `CCOC(=O)CN(C(=O)CCl)c1ccccc1OC` ? 1.78

====

parameter: logP
The answer should be a number; do not append a unit.

What logP value was documented for this compound, `CCCC(=O)O[C@H]1[C@H](C)O[C@@H](O[C@H]2[C@H](N(C)C)[C@@H](O)[C@H](O[C@H]3[C@@H](CC=O)C[C@@H](C)[C@@H](O)/C=C/C=C/C[C@@H](C)OC(=O)C[C@@H](O)[C@@H]3OC)O[C@@H]2C)C[C@@]1(C)OC(=O)CC` ? 3.08

====

# testDetails: method code SF-AS, from DOI: 10.1002/jps.2600600712, PMID: 4398902
parameter: logP
The answer should be a number; do not append a unit.

What logP value was documented for this compound, `CCN1CCCCCC1=O` ? 0.65

====

Here the recorded logP is given for each entry.
# testDetails: method code SF-HPLC, from DOI: 10.1002/ps.2780220406
The answer should be a number; do not append a unit.

Some entries whose results are on file:
| smilesInput | logP |
| --- | --- |
| c1ccc(Cn2cncn2)cc1 | 0.92 |
| CCCCc1ccc(Cn2cncn2)cc1 | 2.81 |

What logP value was documented for this compound, `Fc1ccc(Cn2cncn2)cc1` ? 1.1

What logP value was documented for this compound, `Clc1ccc(Cn2cncn2)cc1` ? 1.84

What logP value was documented for this compound, `COc1ccc(Cn2cncn2)cc1` ? 1.1

What logP value was documented for this compound, `FC(F)(F)c1cccc(Cn2cncn2)c1` ? 1.74

# credit: the SangsterLogP compilation
